Where a SMILES comes first, the peptide text is derived from it.
Cut-off 2 on logP, inclusive. At or above means condition met; below means condition not met.

Molecule: Cc1ccc(C)c(OCC2CN=C(N)O2)c1 (stereo not drawn)
Classification: condition met
//
Molecule: CCOC(=O)C(=Cc1ccccc1)S(=O)(=O)c1ccc([N+](=O)[O-])cc1
Classification: condition met
//
Molecule: COP(=O)(OC)Oc1c(Cl)cc(C)cc1Cl
Classification: condition met
//
Molecule: OCC1OC(n2cnc3c(NCCc4ccccc4)ncnc32)C(O)C1O (stereo not drawn)
Classification: condition not met
//
Molecule: CCCNC(=O)CCC(=O)NCc1c(O)c(=O)cc(C)n1C
Classification: condition not met
//
Molecule: CC(C)CC(NC(=O)C(N)Cc1c[nH]c2ccccc12)C(=O)O (stereo not drawn)
Classification: condition not met
//
Molecule: Cc1sc2c(C)cc3c(C)cc(=O)oc3c2c1C
Classification: condition met
//
Molecule: COCCCNc1ncnc2c1ncn2C1OC(CO)C(O)C1O (stereo not drawn)
Classification: condition not met
//
Molecule: NCCCOC1Cc2c(O)cc(O)cc2OC1c1ccc(O)c(O)c1 (stereo not drawn)
Classification: condition not met
//
Molecule: C[N+](C)([O-])CCCc1ccccc1
Classification: condition not met
//
Molecule: FC(F)(F)c1ccc(CNc2[nH]cnc3ncnc2-3)cc1
Classification: condition met
//
Molecule: CC(C)CC(NC(=O)C(CC(C)C)NC(=O)C(CC(C)C)NC(=O)C1CCCN1)C(=O)O (stereo not drawn) (H-PLLL-OH; configuration not given here)
Classification: condition not met
//
Molecule: COc1cc2ncnc(Nc3cccc(I)c3)c2cc1OC
Classification: condition met
//
Molecule: CC(=O)OC(C)(C)C1CCC2(C)CCCC(CO)C2C1 (stereo not drawn)
Classification: condition met
//
Molecule: CCOP(=O)(OCC)C(C)(C)[N+]([O-])=Cc1ccc(Cl)cc1
Classification: condition met
//
Molecule: CC(C)C[C@H](NC(=O)[C@@H](N)CC(C)C)C(=O)O
Classification: condition not met
//
Molecule: CC(C)CC(N)C(=O)NC(C)C(=O)NC(CC(C)C)C(=O)O (stereo not drawn) (H-Leu-Ala-Leu-OH; configuration not given here)
Classification: condition not met
//
Molecule: ClCC1(C(Cl)Cl)C2C(Cl)CC1(C(Cl)Cl)C(Cl)C2Cl (stereo not drawn)
Classification: condition met
//
Molecule: CC(C)C(=O)OCC(=O)C1(O)C(C)CC2C3CCC4=CC(=O)C=CC4(C)C3(F)C(O)CC21C (stereo not drawn)
Classification: condition met
//
Molecule: CCCCCCCCCCCCCCNCCO
Classification: condition met
//
Molecule: O=[N+]([O-])c1ccc2c(c1)-c1ccccc1C2
Classification: condition met
//
Molecule: O=C(NC1CCCCCCC1)NS(=O)(=O)c1cnccc1NC1CCCCCC1
Classification: condition met
//
Molecule: CCN(CC)c1ccc(NC(=O)N(C)OC)cc1
Classification: condition met
//
Molecule: CCO[PH](=O)O
Classification: condition not met
//
Molecule: CC(C)(C)NCC(COc1nsnc1N1CCOCC1)OC(=O)C1CC1 (stereo not drawn)
Classification: condition met
//
Molecule: O=c1[nH]c2cc(Cl)c(Cl)c([N+](=O)[O-])c2[nH]c1=O
Classification: condition not met
//
Molecule: C=C(C)C(=O)OCC(COC(=O)C(=C)C)COC(=O)C(=C)C
Classification: condition met
//
Molecule: CC(=O)c1ccc2ccc3cccc4ccc1c2c34
Classification: condition met
//
Molecule: CON(C)C(=O)Nc1cccc(C#N)c1
Classification: condition not met
//
Molecule: CCOc1ccc(N)c(OCC)c1
Classification: condition met
//
Molecule: CC(C)(C)[N+]([O-])=Cc1cccc(O)c1
Classification: condition not met
//
Molecule: NC(=S)NN=C(c1cccc([N+](=O)[O-])c1)c1ccccn1
Classification: condition not met
//
Molecule: CC(C)COC(=O)n1cc(F)c(=O)[nH]c1=O
Classification: condition not met
//
Molecule: Cc1cn(C2C=CC(COP3(=O)OCc4ccccc4O3)O2)c(=O)[nH]c1=O (stereo not drawn)
Classification: condition not met
//
Molecule: CC1=CCC(C)(C)C=CCC2(C)OC2CC1 (stereo not drawn)
Classification: condition met
//
Molecule: Cc1cc2c(cc(C)c3ccc(=O)oc32)o1
Classification: condition met
//
Molecule: CSc1ncc([N+](=O)[O-])n1C
Classification: condition not met
//
Molecule: CC(C)OC(=O)C1(S(=O)(=O)c2ccc(Cl)cc2)CCCCC1
Classification: condition met
//
Molecule: CCCCOc1cccc2nc(N)nc(N)c12
Classification: condition met
//
Molecule: NC1=NCC(CN2CCN(c3ccc([N+](=O)[O-])cc3)CC2)O1 (stereo not drawn)
Classification: condition not met
//
Molecule: CC(C)CC(N)C(=O)NC(CC(C)C)C(=O)NC(Cc1ccc(O)cc1)C(=O)O (stereo not drawn) (H-Leu-Leu-Tyr-OH; configuration not given here)
Classification: condition not met
//
Molecule: CC(C)NC(=S)NS(=O)(=O)c1cnccc1NC1CCCCCC1
Classification: condition met
//
Molecule: C[N+](C)([O-])CCc1ccccc1
Classification: condition not met
//
Molecule: CON(C)C(=O)Nc1ccc(NS(C)(=O)=O)cc1
Classification: condition not met
//
Molecule: CCCCC(C)CC(O)C=CC1C(O)CC2CC(CCOCC(=O)OC)CC21 (stereo not drawn)
Classification: condition met
//
Molecule: CCSc1cccc2nc(N)nc(N)c12
Classification: condition met
//
Molecule: Nc1ccc2cc3ccccc3nc2c1CO
Classification: condition not met

---

Where a SMILES comes first, the peptide text is derived from it. [ ]: non-standard residue; d: D form. ξ: configuration not given here. ξY = NC(Cc1ccc(O)cc1)C(=O)O
# logP annotations

Compound: Cc1oc2ccc3ccc(=O)oc3c2c1C
logP: 2.97

Compound: CC(=O)NC(CCCCN(Cc1ccccc1)C(=O)N(CCCl)N=O)C(=O)NCc1ccccc1 (stereo not given)
logP: 2.46

Compound: CC(=O)Nc1cc(NCC(C)O)c(Cl)cc1N=Nc1ccc([N+](=O)[O-])cc1Cl (stereo not given)
logP: 4

Compound: O=C(NC1CCCCCC1)NS(=O)(=O)c1cnccc1NC1CCCCCC1
logP: 4.96

Compound: NC(Cc1ccc(O)cc1)C(=O)NCC(=O)NCC(=O)O (stereo not drawn) (H-[ξY]-Gly-Gly-OH)
logP: -3.51

---

Listing: logP of selected molecules
Where a SMILES comes first, the peptide text is derived from it.

Molecule: COP(=O)(OC)Oc1ccc(C#N)cc1
logP: 0.84

Molecule: CC(=NNC(=O)c1ccc(Br)cc1)c1cnccn1
logP: 2.9

Molecule: CC(=NNC(=O)c1ccc(O)cc1)c1cnccn1
logP: 1.9

Molecule: O=c1cc(CCl)oc(Cl)c1O
logP: 0.95

Molecule: CC(C)CC(N)C(=O)N1CCCC1C(=O)NC(CC(C)C)C(=O)NC(CC(C)C)C(=O)O (stereo unspecified) (H-LPLL-OH; configuration not given here)
logP: -0.92

Molecule: CCC(C)C(NC(=O)C(N)Cc1ccccc1)C(=O)NC(C(=O)O)C(C)O (stereo not drawn) (H-Phe-Ile-Thr-OH; configuration not given here)
logP: -1.95

Molecule: CN(c1ccc2cc3ccc4c(c3nc2c1)COCN4)S(C)(=O)=O
logP: 1.54

Molecule: CCOC(=O)c1cccc2c1CC(c1ccc(OC)cc1)C(OC(C)=O)C(=O)N2CCN(C)C (stereo unspecified)
logP: 4.2

Molecule: O=C1CCC(c2ccc(-n3ccnc3)cc2)=NN1
logP: 0.96

Molecule: CCC(C)C(NC(=O)C(CC(C)C)NC(=O)C(N)CO)C(=O)O (stereo not drawn) (H-Ser-Leu-Ile-OH; configuration not given here)
logP: -1.99

Molecule: CC(NC(=O)C(N)Cc1c[nH]c2ccccc12)C(=O)NC(C(N)=O)C(C)C (stereo not drawn) (H-Trp-Ala-Val-NH2; configuration not given here)
logP: 0.4

Molecule: O=C1N=C(N2CCOCC2)CN1Cc1ccc(I)cc1
logP: 1.7

Molecule: CCCc1c(C)nc2cccc(C)n2c1=O
logP: 2.22

Molecule: O=c1cc(CSCCO)occ1O
logP: -0.69

Molecule: COc1cccc(OCC2CN=C(N)O2)c1 (stereo unspecified)
logP: 1.34

Molecule: COC(=O)c1[nH]cc(-c2ccccc2C)c1N1CCOCC1
logP: 2.8

Molecule: CC(=O)Oc1cc(OC(C)CCCc2ccccc2)cc2c1C1CC(O)CCC1C(C)N2 (stereo unspecified)
logP: 5.7

Molecule: COc1ccccc1-n1nnnc1N
logP: 0.56

Molecule: CN(C)CC(c1ccccc1)c1ccccc1
logP: 3.58

Molecule: CC(C)C(N)C(=O)NC(Cc1ccc(O)cc1)C(=O)O (stereo not drawn) (H-Val-Tyr-OH; configuration not given here)
logP: -2.52

Molecule: CCOP(=O)(OCC)C(C)(C)[N+]([O-])=Cc1ccncc1
logP: 0.32
